Experiment: Cytotoxicity assay in mammalian cells (RAW 264.7), MTT
Conditions: mouse, RAW 264.7 cells
What viability at 24 h, 25 µg/mL was measured for each of the following?
Note: state the figure and append the unit.

**Q:** Need viability at 24 h, 25 µg/mL, item CC[C@H](C)[C@@H](OC(C)=O)[C@@H](C)C1=CC(=O)C2=C(O[C@]3(C)CC[C@H]4O[C@@H](C(C)(C)O)CC[C@]4(C)C3=C2)C1=O [Compound 4, anhydrocochlioquinone A]
**A:** 12.1%

**Q:** Do the same for `CC[C@H](C)[C@@H](OC(C)=O)[C@@H](C)C1=CC(=O)C2=C(O[C@]3(C)CC[C@H]4O[C@@H](C(C)(C)O)CC[C@]4(C)[C@H]3[C@@H]2O)C1=O` please
**A:** 15%
